studyTarget: phosphorylated Btk at Tyr223 in Ramos cells (Homo sapiens (Human))
Sequence (Q06187 whole entry): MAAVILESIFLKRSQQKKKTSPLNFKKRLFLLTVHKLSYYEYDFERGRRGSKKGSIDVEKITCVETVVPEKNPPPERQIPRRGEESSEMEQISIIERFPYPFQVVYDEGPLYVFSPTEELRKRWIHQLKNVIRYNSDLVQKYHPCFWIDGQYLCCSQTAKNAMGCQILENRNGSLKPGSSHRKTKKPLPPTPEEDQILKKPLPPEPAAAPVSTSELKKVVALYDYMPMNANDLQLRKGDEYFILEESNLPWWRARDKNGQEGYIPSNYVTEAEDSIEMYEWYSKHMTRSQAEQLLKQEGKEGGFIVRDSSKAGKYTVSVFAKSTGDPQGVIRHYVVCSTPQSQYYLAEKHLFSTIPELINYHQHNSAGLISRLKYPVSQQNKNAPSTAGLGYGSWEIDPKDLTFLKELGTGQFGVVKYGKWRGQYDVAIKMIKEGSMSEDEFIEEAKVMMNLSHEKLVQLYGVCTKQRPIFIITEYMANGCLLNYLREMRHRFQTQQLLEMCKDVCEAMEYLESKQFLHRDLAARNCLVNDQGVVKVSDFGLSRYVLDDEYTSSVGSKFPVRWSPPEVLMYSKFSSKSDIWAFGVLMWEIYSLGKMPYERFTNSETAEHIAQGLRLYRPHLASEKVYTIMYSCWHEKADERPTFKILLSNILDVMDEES
assayComment: Btk pY223 cellular assay (HTRF) in Ramos cells
Assay type: cell-based
measurementContext: 1 hour compound incubation, pervanadate or Na3VO4 stimulation
Where a name gives a salt, the structure may show the parent alone.
Entries and their IC50
Entry rule: numbers only, all in nM.

- molecule: "CN(C)C/C=C/C(=O)N1CCCc2[nH]c3c(C(N)=O)c(-c4ccc(Oc5ccccc5)cc4)nn3c2C1"
  IC50, nM: 4.6
- molecule: "NC(=O)c1c(-c2ccc(Oc3ccccc3)cc2)nn2c1NCC[C@H]2C1CCN(C(=O)C#CCN2CCCC2)CC1"
  IC50, nM: 7.3
- molecule: "CC#CC(=O)N1CC(C2CCNc3c(C(N)=O)c(-c4ccc(Oc5ccccc5)cc4)nn32)C1 (stereo not shown)"
  IC50, nM: 6.7

Item: NC(=O)c1c(-c2ccc(F)c(Cl)c2)nn2c1NCCC2c1ccccc1NC(=O)/C=C/CN1CCCCC1 (stereo not shown) | IC50: 165

get_value(item= CN(C)C/C=C/C(=O)N1CCc2c([nH]c3c(C(N)=O)c(-c4ccc(Oc5ccccc5)cc4)nn23)C1 [Compound 64, trifluoroacetate] , readout=IC50) returns 4.8

C=CC(=O)Nc1ccccc1C1CCNc2c(C(N)=O)c(-c3ccc(F)c(C)c3)nn21 (stereo not shown) yielded IC50 of 20

What the record says about C=CC(=O)Nc1ccccc1C1CCNc2c(C(N)=O)c(-c3ccc(F)c(F)c3)nn21 (stereo not shown) : IC50 is 22.7

---

studyTarget: phosphorylated Btk at Tyr223 in Ramos cells (Homo sapiens (Human))
assayComment: Btk pY223 cellular assay (HTRF) in Ramos cells
Assay type: cell-based
measurementContext: 1 hour compound incubation, pervanadate or Na3VO4 stimulation
measuredEndpoint: IC50
Express your answer as a number followed by its unit.

- molecule: "C=CC(=O)Nc1ccccc1C1CCNc2c(C(N)=O)c(-c3ccc(Cl)c(OC)c3)nn21 (stereo not drawn) [Compound 160]"
  IC50: "1.3 nM"
- molecule: "C=CC(=O)Nc1ccc2c(c1)c(=O)[nH]c1c(C(N)=O)c(-c3ccc(Oc4ccccc4)cc3)nn12 [Compound 78]"
  IC50: "140 nM"
- molecule: "C=CC(=O)Nc1ccccc1C1CCNc2c(C(N)=O)c(-c3ccc(C(F)(F)F)c(Cl)c3)nn21 (stereo not drawn) [Compound 162]"
  IC50: "3.2 nM"

Notebook: C=CC(=O)Nc1ccccc1C1CCNc2c(C(N)=O)c(-c3ccc(F)c(Br)c3)nn21 (stereo not drawn) [Compound 152] , IC50 read as 1.8 nM

What the record says about C=CC(=O)Nc1ccccc1C1CCNc2c(C(N)=O)c(-c3ccc(F)c(Cl)c3)nn21 (stereo not drawn) [Compound 196] : IC50 is 2 nM

---

studyTarget: phosphorylated Btk at Tyr223 in Ramos cells (Homo sapiens (Human))
assayComment: Btk pY223 cellular assay (HTRF) in Ramos cells
Assay type: cell-based
measurementContext: 1 hour compound incubation, pervanadate or Na3VO4 stimulation
Counter-ions that a name gives are not always drawn.
measuredEndpoint: log10 of IC50 (log10 of the value in nM)
Each number you see is log10 of IC50, and the unit inside the log is nM.

# annotated cases, reported log10 of IC50 shown
- molecule: "C=CC(=O)N1CC(C2(C)CCNc3c(C(N)=O)c(-c4ccc(Oc5ccccc5)cc4)nn32)C1 (stereo not shown)"
  measuredEndpoint: "log10 of IC50"
  testResult: 1.25
- molecule: "C=CC(=O)N(C)CC1CCNc2c(C(N)=O)c(-c3ccc(Oc4ccccc4)cc3)nn21 (stereo not shown)"
  measuredEndpoint: "log10 of IC50"
  testResult: 0.90
- molecule: "COc1cc(-c2nn3c(c2C(N)=O)NCCC3c2ccccc2NC(=O)/C=C/CN(C)C)ccc1C (stereo not shown)"
  measuredEndpoint: "log10 of IC50"
  testResult: 1.28
- molecule: "C=CC(=O)N1CC(C2CCNc3c(C(N)=O)c(-c4ccc(OCc5ccccc5)cc4)nn32)C1 (stereo not shown)"
  measuredEndpoint: "log10 of IC50"
  testResult: 1.31
- molecule: "C=CC(=O)N1CCCC1C1CCNc2c(C(N)=O)c(-c3ccc(Oc4ccccc4)cc3)nn21 (stereo not shown)"
  measuredEndpoint: "log10 of IC50"
  testResult: 1.15
- molecule: "C=CC(=O)NCC1CNc2c(C(N)=O)c(-c3ccc(Oc4ccccc4)cc3)nn2C1 (stereo not shown)"
  measuredEndpoint: "log10 of IC50"
  testResult: 0.64

Attention now shifts to the item below.
Value sought: log10 of IC50, system phosphorylated Btk at Tyr223 in Ramos cells (Homo sapiens (Human)), item CN(C)CCC(=O)N1CCc2[nH]c3c(C(N)=O)c(-c4ccc(Oc5ccccc5)cc4)nn3c2C1 [Compound 57, trifluoroacetate] . Result: 2.37

Value source: patent US9447106B2
